experiment_summary: NCI Yeast Anticancer Drug Screen. Data for the mlh1 rad18 strain (AID 175)
conditions: S. cerevisiae mlh1 rad18 strain growth inhibition; at 50.0 µM; hits give high values
This is part of a sample that, as a whole, favours compounds with a hit. Of some 79,000 tested, about 15% had one in any assay.
readout_name: growth inhibition (%)
Lab book: enter the figure in %, no units written.

CN(C)CCC(O)c1ccccc1 (stereo not drawn)    -22.6
C(#CCN1CCOCC1)CCCN1CCOCC1    10.2
COC(=O)[C@]1(C)CCC[C@]2(C)c3ccc(C(C)=O)cc3C(=O)C[C@@H]12    -15.1

From here, focus on the item given below.
Any idea what growth inhibition was measured for O=C(c1ccc(Cl)cc1)C1C(c2ccccc2)C1[N+](=O)[O-] (stereo not drawn) ?
31

* * *

Items are presented alongside their recorded growth inhibition.
experiment_summary: NCI Yeast Anticancer Drug Screen. Data for the cln2 rad14 strain (AID 165);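 note: 0% = growth equal to vehicle treated cultures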
conditions: S. cerevisiae cln2 rad14 strain, at 50.0 µM, hits give high values
This is part of a sample that, as a whole, favours compounds with a hit. Of some 79,000 tested, about 15% had one in any assay.
Answer with a number only, understood to be in %.

Examples with answers:
CCC(=O)Oc1cc(C(C)(C)C)c(OC(=O)CC)cc1C(C)(C)C    12.3
CCC(=O)Oc1ccc(C(C)(C)C)cc1    -2.25
CCOC(=C[P+](c1ccccc1)(c1ccccc1)c1ccccc1)OCC    -9.5
O=S(=O)(O)c1cc(N=Nc2cc(S(=O)(=O)O)c3ccccc3c2O)ccc1/C=C/c1ccc(N=Nc2cc(S(=O)(=O)O)c3ccccc3c2O)cc1S(=O)(=O)O    13.7
O=C(/C=C/NC(=O)OCc1ccccc1)OCc1ccccc1    17.1
COC(=O)C1c2ccccc2CC(=O)N1NC(=O)c1ccccc1 (stereo not given)    4.5

API: the following record is the query input.
What value of growth inhibition has been recorded for this entry: CC1CN(C(=S)Nc2cccc3ccccc23)CC(C)O1 (stereo not given)
22

* * *

experiment_summary: NCI Yeast Anticancer Drug Screen. Data for the mlh1 rad18 strain (AID 175)
conditions: S. cerevisiae mlh1 rad18 strain growth inhibition; at 50.0 µM; hits give high values
This is part of a sample that, as a whole, favours compounds with a hit. Of some 79,000 tested, about 15% had one in any assay.
Items are presented alongside their recorded growth inhibition.
Record the value in %, omitting the unit from your answer.

So what does the record say about growth inhibition for O=C(c1nc2ccccc2[nH]1)N1CCN(c2ccccc2)CC1 ?
7.3

GET /values?readout=growth inhibition&item= O=C(NC(=O)c1c(F)cccc1F)Nc1ccc(C(O)(C(F)(F)F)C(F)(F)F)cc1
3.55

Fill in: growth inhibition of CCCNCCC(=O)Nc1ccccc1C(=O)OCC is ___
-6.25

I'd like to know its growth inhibition. The compound in question is CC(=O)CCCCO
-18.1

* * *

growth inhibition listing for selected compounds.
experiment_summary: NCI Yeast Anticancer Drug Screen. Data for the sgs1 mgt1 strain (AID 161);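 note: 0% = growth of cultures given vehicle only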
conditions: S. cerevisiae sgs1 mgt1 strain, at 50.0 µM, hits give high values
About 79,000 compounds went through this panel and 15% of them were active in at least one assay; those are over-represented in the sample as a whole.
# unit: % | format: bare number

N#CC1=C(N)N(c2ccccc2)C(c2ccco2)C1(C#N)C#N (stereo unspecified)    9.85
CC(C)(C)[Si](C)(C)OCC1OC(n2cnc3c(N)ncnc32)C(O)C1O (stereo unspecified)    4.85
C=C(C)C(=O)NC(Cc1cnc[nH]1)C(=O)O (stereo unspecified)    16.1
CCCCNCC1COc2cccc(OCC)c2O1 (stereo unspecified)    -2
OCC(O)Cn1cnc2c(NO)ncnc21 (stereo unspecified)    -8

Attention now turns to another entry.
Name the reported growth inhibition value associated with the compound CC(=O)c1ccc(N=C2C(=O)Nc3ccccc32)cc1
10.4
